# assay_target: UniProtKB Q14524
# assay_remarks: Peak INa screening assay (tonic block and use-dependent block)
# Type: cell-based
# particulars: read-out: Peak TB (tonic block of peak INa) % Inhibition
Overview of reported inhibition at 1 µM across a group of compounds:
Give the number; % is assumed, so skip it.

// worked examples, inhibition at 1 µM included
FC(F)(F)c1ccc(-c2ccc3c(c2)C(NCCOc2ccccn2)=NCCO3)cc1 ... 30
FC(F)(F)c1ccc(-c2ccc3c(c2)C(N2CCC(c4ccccn4)C2)=NCCO3)cc1 (centres unmarked) ... 10
FC(F)(F)c1ccc(-c2ccc3c(c2)C(NCc2ccccc2)=NCCO3)cc1 ... 27
CC(C)(C)OC(=O)N1CC[C@@H](NC2=NCCOc3ccc(-c4ccc(C(F)(F)F)cc4)cc32)C1 ... 12

// inhibition at 1 µM lookup, key: FC(F)(F)c1ccc(-c2ccc3c(c2)C(NCCOc2ccccc2)=NCCO3)cc1 19

====

# assay_target: human Nav1.1 (Homo sapiens)
# Construct: expressed in transfected cells; host or cells: HEK293, transient transfection (Qiagen Superfect), α1:β1:β2 at 10:1:1
# assay_remarks: Nav1.1 use-dependent block, whole-cell voltage clamp, 10 Hz pulse train
# Assay type: cell-based
# particulars: Chantest conditions, read-out: NAV1.1 UDB-10 HZ % Inhibition
endpoint: inhibition at 1 µM (%)
Give the number; % is assumed, so skip it.

// inhibition at 1 µM lookup, key: Cc1cnc2n1CCOc1ccc(-c3ccc(C(F)(F)F)cc3)cc1-2 -10

// inhibition at 1 µM lookup, key: FC(F)(F)c1ccc(-c2ccc3c(c2)-c2nccn2CCO3)cc1 -12

// inhibition at 1 µM lookup, key: CC(C)(O)c1cnc2n1CCOc1ccc(-c3ccc(C(F)(F)F)cc3)cc1-2 -5

// inhibition at 1 µM lookup, key: FC(F)(F)c1ccc(-c2ccc3c(c2)-c2ncc(Cl)n2CCO3)cc1 -3

====

# assay_target: hNav1.2 sodium channel (Homo sapiens)
# Construct: expressed in transfected cells
# Sequence (Q99250 whole entry): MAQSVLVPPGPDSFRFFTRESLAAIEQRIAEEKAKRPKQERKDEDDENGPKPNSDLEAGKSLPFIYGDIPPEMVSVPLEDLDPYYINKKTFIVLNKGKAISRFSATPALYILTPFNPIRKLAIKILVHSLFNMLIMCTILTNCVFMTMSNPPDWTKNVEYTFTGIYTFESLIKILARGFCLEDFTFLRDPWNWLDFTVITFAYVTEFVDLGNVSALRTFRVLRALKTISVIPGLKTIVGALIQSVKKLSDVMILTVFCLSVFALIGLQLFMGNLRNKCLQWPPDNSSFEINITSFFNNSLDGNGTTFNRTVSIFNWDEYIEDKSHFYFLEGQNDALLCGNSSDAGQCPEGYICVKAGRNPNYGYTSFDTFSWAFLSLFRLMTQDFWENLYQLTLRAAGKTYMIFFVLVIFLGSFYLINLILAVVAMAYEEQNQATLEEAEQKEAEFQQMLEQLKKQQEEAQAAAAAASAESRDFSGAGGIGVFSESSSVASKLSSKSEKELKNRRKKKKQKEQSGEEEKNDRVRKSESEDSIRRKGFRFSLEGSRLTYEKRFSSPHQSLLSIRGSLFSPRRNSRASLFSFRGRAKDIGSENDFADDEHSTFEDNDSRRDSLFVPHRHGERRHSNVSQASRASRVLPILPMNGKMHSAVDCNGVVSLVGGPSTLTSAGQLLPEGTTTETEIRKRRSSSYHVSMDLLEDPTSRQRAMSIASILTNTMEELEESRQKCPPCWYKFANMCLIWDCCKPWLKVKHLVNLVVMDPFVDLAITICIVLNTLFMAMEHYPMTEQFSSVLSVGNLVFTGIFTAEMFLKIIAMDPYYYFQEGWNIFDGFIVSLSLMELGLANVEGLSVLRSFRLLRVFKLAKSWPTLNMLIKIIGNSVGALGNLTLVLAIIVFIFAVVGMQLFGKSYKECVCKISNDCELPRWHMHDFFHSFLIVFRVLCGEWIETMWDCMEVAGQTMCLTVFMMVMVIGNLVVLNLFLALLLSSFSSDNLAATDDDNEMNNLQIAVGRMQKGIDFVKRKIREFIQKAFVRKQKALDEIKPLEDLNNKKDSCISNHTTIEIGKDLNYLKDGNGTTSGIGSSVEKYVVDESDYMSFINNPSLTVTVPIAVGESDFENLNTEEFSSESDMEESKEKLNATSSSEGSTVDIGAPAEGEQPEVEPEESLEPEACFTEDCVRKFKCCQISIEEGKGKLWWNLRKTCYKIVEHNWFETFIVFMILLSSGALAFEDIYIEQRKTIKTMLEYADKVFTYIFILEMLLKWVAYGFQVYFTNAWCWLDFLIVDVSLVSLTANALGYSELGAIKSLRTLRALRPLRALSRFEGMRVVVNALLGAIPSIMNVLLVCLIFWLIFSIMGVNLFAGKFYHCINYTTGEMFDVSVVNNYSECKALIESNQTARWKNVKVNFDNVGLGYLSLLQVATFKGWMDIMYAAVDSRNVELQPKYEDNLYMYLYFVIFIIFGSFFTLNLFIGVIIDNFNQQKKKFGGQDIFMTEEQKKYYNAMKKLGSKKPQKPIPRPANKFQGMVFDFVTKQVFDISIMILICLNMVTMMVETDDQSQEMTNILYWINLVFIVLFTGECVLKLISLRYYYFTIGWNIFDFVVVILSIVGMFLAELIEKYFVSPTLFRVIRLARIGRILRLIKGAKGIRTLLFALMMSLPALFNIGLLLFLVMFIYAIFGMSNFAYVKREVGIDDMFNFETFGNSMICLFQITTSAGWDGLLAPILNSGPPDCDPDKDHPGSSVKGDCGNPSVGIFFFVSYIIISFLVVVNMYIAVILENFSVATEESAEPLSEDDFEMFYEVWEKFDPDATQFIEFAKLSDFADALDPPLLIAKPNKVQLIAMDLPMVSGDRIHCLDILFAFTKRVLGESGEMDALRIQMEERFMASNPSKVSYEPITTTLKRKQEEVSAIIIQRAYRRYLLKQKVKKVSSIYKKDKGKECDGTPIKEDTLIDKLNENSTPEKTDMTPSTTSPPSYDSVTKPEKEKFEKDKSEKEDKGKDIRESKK
# assay_remarks: Nav1.2 use-dependent block, whole-cell voltage clamp, 10 Hz pulse train
# Assay type: cell-based
# particulars: Chantest conditions, read-out: NAV1.2 UDB-10 HZ % Inhibition
Overview of reported inhibition at 1 µM across a group of compounds:
Give the number; % is assumed, so skip it.

// inhibition at 1 µM lookup, key: Cc1cnc2n1CCOc1ccc(-c3ccc(C(F)(F)F)cc3)cc1-2 -3

// inhibition at 1 µM lookup, key: FC(F)(F)c1ccc(-c2ccc3c(c2)-c2ncc(Cc4ccccc4)n2CCO3)cc1 -5

// inhibition at 1 µM lookup, key: CC(C)(O)c1cnc2n1CCOc1ccc(-c3ccc(C(F)(F)F)cc3)cc1-2 0

// inhibition at 1 µM lookup, key: FC(F)(F)c1ccc(-c2ccc3c(c2)-c2ncc(Br)n2CCO3)cc1 6

// inhibition at 1 µM lookup, key: FC(F)(F)Oc1ccc(-c2ccc3c(c2)-c2nccn2CCO3)cc1 18

====

# assay_target: wild-type human cardiac sodium channel, hNav1.5 (Homo sapiens, UniProt Q14524)
# Sequence (Q14524 whole entry): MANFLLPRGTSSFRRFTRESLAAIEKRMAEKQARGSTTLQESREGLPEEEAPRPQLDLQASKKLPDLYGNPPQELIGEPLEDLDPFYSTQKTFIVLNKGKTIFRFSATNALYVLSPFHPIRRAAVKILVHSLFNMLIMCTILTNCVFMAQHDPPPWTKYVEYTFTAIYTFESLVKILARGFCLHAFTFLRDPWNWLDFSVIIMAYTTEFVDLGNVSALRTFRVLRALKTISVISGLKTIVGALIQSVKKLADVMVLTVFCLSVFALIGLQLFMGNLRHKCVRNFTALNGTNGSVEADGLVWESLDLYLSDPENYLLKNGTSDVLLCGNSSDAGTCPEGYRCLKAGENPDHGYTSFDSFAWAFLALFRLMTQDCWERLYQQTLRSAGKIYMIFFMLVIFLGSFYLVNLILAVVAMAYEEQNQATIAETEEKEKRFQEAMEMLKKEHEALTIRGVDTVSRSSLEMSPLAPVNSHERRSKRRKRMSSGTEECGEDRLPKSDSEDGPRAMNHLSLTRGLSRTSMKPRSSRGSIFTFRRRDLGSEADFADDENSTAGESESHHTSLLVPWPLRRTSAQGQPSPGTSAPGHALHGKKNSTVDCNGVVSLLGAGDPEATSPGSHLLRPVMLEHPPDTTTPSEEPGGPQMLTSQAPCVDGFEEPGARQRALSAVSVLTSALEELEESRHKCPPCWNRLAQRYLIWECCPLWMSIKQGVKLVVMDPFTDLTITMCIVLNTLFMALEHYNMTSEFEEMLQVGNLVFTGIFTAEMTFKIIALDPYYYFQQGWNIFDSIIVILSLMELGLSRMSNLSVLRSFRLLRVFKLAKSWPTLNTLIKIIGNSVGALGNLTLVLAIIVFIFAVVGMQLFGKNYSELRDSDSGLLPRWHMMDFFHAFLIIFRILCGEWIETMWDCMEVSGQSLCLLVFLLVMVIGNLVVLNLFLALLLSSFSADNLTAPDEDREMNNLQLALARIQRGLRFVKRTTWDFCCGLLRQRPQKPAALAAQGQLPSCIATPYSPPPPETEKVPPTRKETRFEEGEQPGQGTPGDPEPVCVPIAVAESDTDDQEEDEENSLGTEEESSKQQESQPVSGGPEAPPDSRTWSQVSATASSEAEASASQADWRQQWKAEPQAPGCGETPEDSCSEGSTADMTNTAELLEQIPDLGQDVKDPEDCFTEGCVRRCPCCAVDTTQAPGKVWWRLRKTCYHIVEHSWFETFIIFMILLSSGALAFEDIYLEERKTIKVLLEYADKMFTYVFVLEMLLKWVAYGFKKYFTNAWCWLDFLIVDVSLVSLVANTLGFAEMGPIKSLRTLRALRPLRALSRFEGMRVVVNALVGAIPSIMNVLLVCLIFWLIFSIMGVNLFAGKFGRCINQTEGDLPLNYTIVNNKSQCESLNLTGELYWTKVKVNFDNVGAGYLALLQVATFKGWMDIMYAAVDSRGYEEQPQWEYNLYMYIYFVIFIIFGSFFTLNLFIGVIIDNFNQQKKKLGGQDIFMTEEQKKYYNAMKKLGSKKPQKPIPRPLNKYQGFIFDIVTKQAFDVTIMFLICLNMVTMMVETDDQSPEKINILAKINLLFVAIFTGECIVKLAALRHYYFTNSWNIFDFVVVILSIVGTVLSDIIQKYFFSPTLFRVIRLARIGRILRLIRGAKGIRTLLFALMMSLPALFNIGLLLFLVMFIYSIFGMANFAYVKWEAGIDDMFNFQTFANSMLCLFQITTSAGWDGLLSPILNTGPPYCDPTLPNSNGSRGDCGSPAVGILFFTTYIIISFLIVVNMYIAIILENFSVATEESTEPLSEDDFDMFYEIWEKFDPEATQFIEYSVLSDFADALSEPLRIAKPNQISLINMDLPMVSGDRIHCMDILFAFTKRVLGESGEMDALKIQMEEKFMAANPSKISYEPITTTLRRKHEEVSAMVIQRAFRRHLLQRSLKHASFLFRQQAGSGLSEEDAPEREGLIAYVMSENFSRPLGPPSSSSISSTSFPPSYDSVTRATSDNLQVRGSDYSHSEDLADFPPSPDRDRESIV
# assay_remarks: Late INa screening assay (QPatch whole cell patch clamp, tefluthrin-enhanced late sodium current)
# Format: cell-based
# particulars: HEK293 hNav1.5, late INa activated with 10 μM Tefluthrin
endpoint: inhibition at 1 µM (%)
Give the number; % is assumed, so skip it.

// worked examples, inhibition at 1 µM included
CCN(CC)[C@@H]1CCN(C2=NCCOc3ccc(-c4ccc(C(F)(F)F)cc4)cc32)C1 ... 11
C[C@H]1CN(C(=O)OC(C)(C)C)CCN1C1=NCCOc2ccc(-c3ccc(C(F)(F)F)cc3)cc21 ... 2
FC(F)(F)c1ccc(-c2ccc3c(c2)C(NCc2ccccn2)=NCCO3)cc1 ... 32

// inhibition at 1 µM lookup, key: FC(F)(F)c1ccc(-c2ccc3c(c2)C(Nc2ccccn2)=NCCO3)cc1 43

// inhibition at 1 µM lookup, key: FC(F)(F)c1ccc(-c2ccc3c(c2)C(NCc2ccccc2)=NCCO3)cc1 41

// inhibition at 1 µM lookup, key: FC(F)(F)c1ccc(-c2ccc3c(c2)-c2ncc(Br)n2CCO3)cc1 4

// inhibition at 1 µM lookup, key: O=C(N[C@@H]1CCN(C2=NCCOc3ccc(-c4ccc(C(F)(F)F)cc4)cc32)C1)c1ccccn1 18

// inhibition at 1 µM lookup, key: FC(F)(F)c1ccc(-c2ccc3c(c2)C(NC2CCNC2)=NCCO3)cc1 (stereo not shown) 8
